Protocol details: yeast display, Sf9 membrane polyspecificity reagent, FACS + sequencing; frameworks hold sequencing errors
Measured parameter: polyreactivity (PSR sort gate)

Some solved entries appear below for comparison.
QVQLVESGGGLVQAGGSLRLSCAASGITFKSYTMGWYRQAPGKERELVAAITASGGTTRYADSVKGRFTISRDNAKNTVYLQMNSLKREDTAVYYCNALPFRYGKRRGYWGQGTQVTVSS    low polyreactivity
QVQLVESGGGLVQAGGSLRLSCAASGRIFYGYAMGWYRQAPGKERELVAAIDWSGGSTYADSVKGRFTISRDNAKNTVYLQMNSLKPEDTAVYYCATDWVTSQQPYYWIYEYWGQGTQVTVSS    low polyreactivity
QVQLVESGGGLVQAGGSLRLSCAASGSIFYDYAMGWYRQATRKERELVPAITNDDSSTYYADSVKGRFTISRDNAKNTVYLQMNSLKPEDTAVYYCRFKYAVAHHFWVYRYDYWGQGTQVTVSS    low polyreactivity
QVQLVESGGGLVQEGGSLRLSCAASGYIFWSNTMGWYRQAPGKERELVAAISQSTASTYYADSVKGRFTISRDNAKNTVYLQMNSLKPDDTAVYYCAADGWSRSWGYWVHYGYWGQGTQVTVSS    low polyreactivity

Would you kindly look at the next entry?
Item under review: QVQLVESRGGLVQAGGSLRLSCAASGSTFFHYAMGWYRQAPGKDRELVAAIDSNGGSTYYADSVKGRFTISRDNAKNTVYLPMNSLKPEDTAVYYCAADDLAEFEYDYWGQGTQVTVSS . Reported polyreactivity (PSR sort gate)?
low polyreactivity

====

Protocol details: yeast display, Sf9 membrane polyspecificity reagent, FACS + sequencing; frameworks hold sequencing errors
Measured parameter: polyreactivity (PSR sort gate)

Sample answers from the record:
QVQLVESGGGLVQAGGSLRLSCAASGSIFVYNVMGWYRQAPGKERELVAAINYSGVSTYYADSVKGRFTISRDNAKNTVYLQMNSLKPEDTAVYYCAAEYEFGHSSTPMDYWGQGTQVTVSS    high polyreactivity
QVQLVESGGGLVQAGGSLRLSCAASGSIFSVNTMGWYRQAPGKQRELVAAISESGDGTYYADSVKGRFTISRDNAKNTVYLQMNSLKPEDTAVYYCNADRQKGGGYYPHEFDYWGQGTQVTVSS    low polyreactivity
QVQLVESGGGLVQAGGSLRLSCAASGRIFYPYAMGWYRQAPGKERELVAAITYSGGSTYYADSVKGRFTISRDNAKNTVYLQMNSLKPEDTAVYYCNAVQRGSFYLGKFGYWGQGTQVTVSS    high polyreactivity
QVQLVESGGGLVQAGGSLRLSCAASGRIFLTYAMGWYRQAPGKERELVAAISTSGTRTYYADSVKGRFTISRDNAKNTVYLQMNSLKPEDTAVYYCAREKYNYRTYEYWGQGTQVTVSS    high polyreactivity

What value of measured polyreactivity (PSR sort gate) is listed for QVQLVESGGVLVQAGGSLRLSCAASGSIFVYYGMGWYRQAPGKEREFVAAIWTGGSTYYADSVKGRFTISRDNAKNTVYLQMNSLKPEDTAVYYCAADRRGSHYYRYKYGYWGQGTQVTVSS ?
high polyreactivity

Note, next up: QVQLVESGGGLVQAGGSLRLSCAASGFIFRRYTMGWSRQAHGKERELVAAITSSGGTNYADSVKGRFTISRDNAKNTVYLQMNSLKPEDTAVYFCAAESVSSVWYDYLGQGTQVTVSS
high polyreactivity

====

Protocol details: yeast display, Sf9 membrane polyspecificity reagent, FACS + sequencing; frameworks hold sequencing errors
Measured parameter: polyreactivity (PSR sort gate)

QVQLVESGGGLVQAGGSLRLSCAASGRTFRYNDRGWYRQAPGKERELVASISRISGSTYYADSVKGRFTISRDNAKNTVYLQMNSLKAEVTAVFYCAATVKLKQYPYFGFGYWGQGTQVTVSS    high polyreactivity
QVQLVESGGGLVQAGGSLRLSCAASGRIFGINAMGWYRQAPGKERELVAAINWSGGSTYYADSVKGRFTISRDNAKNTVYIQMNSLKPEDSAVYYCAAQKYKRVGYWGQGTQVTVSS    high polyreactivity

====

Protocol details: yeast display, Sf9 membrane polyspecificity reagent, FACS + sequencing; frameworks hold sequencing errors
Measured parameter: polyreactivity (PSR sort gate)

Study these solved cases before continuing.
QDQLVESGGGLVQAGGSLRLSCAASGNTFNRYAKGWYRQAPGQERELVAAITSDGSTNYADSVKGRFTISRDNAKNTVYIQKNSMKPEDTAVYYCAAEHSGYPVAFYITGYGYDYCGQGTQVTVSS    low polyreactivity
QVQRVESGGGLVQAGGSLRLSCAASGNTFWLNAMGWYRQAPGKERELVAAITYTDGSTYADSVKGRFTISRDNAKNTVYLQMNSLKPEDTAVYYCAARYQWDWRDYYYWGQGTQVTVSS    low polyreactivity
QVQLVESGGGLVQAGGSLRLSCAASGFIFGTYVMGWYRQAPGKERELVAAISESGGRTYYADSVKGRFTISRDNAKNTVYLQMNSLKPEDTAVYYCAKVRHIRFHYYYGYQSYYYWGQGTQVTVSS    high polyreactivity
QVQLVESGGGLVQAGGSLRLSCAASGRIFLYNGMGWYRQAPGKERELVAGITTGGNTNYADSVKGRFTISRDNAKNTVYLQMNSLKPEDTAVYYCAAEVIVYGWSPDYDYWGQGTQVTVSS    low polyreactivity
QVQLVESGGGLVQAGGSLRLSCAASGLIFVSYGMGWYRQAPGKERELVAAITFSGGSTYYADSVKGRFTISRDNAKNTVYLQMNSLKPEDTAVYYCNADYYPGYDYWGQGTQVTVSS    high polyreactivity
QVQLVESGGGLVQAGGSLRLSCAASGGTFPAYTMGWYRQAPGKERELVAAITWSGGNTYYADSVKGRFTISRDNAKNTVYLQMNSLKPQDTAVYYCAAEYWQYQWSVRIDYEYWGQGTQVTVSS    high polyreactivity

Can you share its polyreactivity (PSR sort gate)? I mean this sequence: QVQLVESGGGLVQAGGSLRLSCAASGSTFPKYAMGWYRQAPGKERELVAAITFTGSSTYYADSVKGRFTISRDNAKNTVYLQMNSLKPEDTAVYYCNAVYYTGYYWGQGTQVTVSS
low polyreactivity

Also QVQLEETRGGLVQAGGSLRLSCAASGSIFPYYALGWYRQAAGKERELVASINQTDGTTYYADSVKGRFTISRDNAKNNVYLQMNSLKPDDTAFYYCPADTTLQAFIPYRPIGSYDSWGQGTQVTVSS ?
low polyreactivity

Moving on to the next sequence: QVQLVESGGGLVQAGGSLRLSCAASGFTFQYKAMGVYRQAPGQERELVAAISRGGGRTYYADSVKGRFTISRDNAKNTVYLQMNSLKPEDTAVYYCNVLNYSSRHYLFSYDYWGQGTQVTVSS
high polyreactivity

Also QVQLVESGGGLVQAGGSLRLTCAASGRIFKRYVMGWYRQAPGKERELVAAISVRGASTYYADSVKGRFTISRDHAKNTVYLQMNSLKPEDTAVYYCATAGYRLLDYWGQGTQVTVSS , if possible.
high polyreactivity

Can you handle QVQLVESGGGLVQAGGSLSLSCAASGSTFYENAMGWYRQAPGKERELVAAITWSGGRTYYADSVKGRFTISRDNAKNTVYLQMNSLKPEDTAVYYCNARARSRKFYYWGQGTQVTVSS next?
high polyreactivity

====

Protocol details: yeast display, Sf9 membrane polyspecificity reagent, FACS + sequencing; frameworks hold sequencing errors
Measured parameter: polyreactivity (PSR sort gate)

QVQLVESGGGLVHAGGSLRLSCDASGITFWAYAMGWYRQAPGKEREFVAAITVSTGSTFYADSVKGRFTISRDNAKNTVYLQMNSLKREDTALYYCAAPQDGTWWLPAGGYWGQGTQVTVSS    low polyreactivity
QVHLVESGGGLVQAGGSLRLSCAASAFTFSQYAMGWYRQAPGKERELVAVISINGGSTYYADSVKGRFTISRDNAKNTVYLQMNSLKPEDTAVYYCAADDTDSEYYGYDYWGQGTQVTVSS    low polyreactivity

====

Protocol details: yeast display, Sf9 membrane polyspecificity reagent, FACS + sequencing; frameworks hold sequencing errors
Measured parameter: polyreactivity (PSR sort gate)

Below: 6 sequences and their reported polyreactivity (PSR sort gate).
QVQLVESGGGLVQAGGSLRLSCAASGDTFPKYAMGWYRQAPGKERELVAAITKRGGRTYYADSVKGRFTISRDNAKNTVYLQMNRVKPEDTAVYYCAVDLDGPEYSQVHYDYWGQGTQVTVSS    high polyreactivity
QVQLVESGGGLVQAGGSLRLSCAASGSIFVRYAMGWYRQAPGKERELVASIRSRGDSTYYADSVKGRFTISRDNAKNTVYLQMNSLKPEDTAVYYCAARRYPPRMDYWGQGTQVTVSS    high polyreactivity
QVQLVESGGGLVQAGGSLRLSCAASGSTFRLNAMGWYRQAPGKERELVAAISWTGGSTYYADSVKGRFTISRDNAKNTVYLQMNSLKPEDTAVYYCAADWWQGTSHYWGGAYNYWGQGTQVTVSS    low polyreactivity
QVQLVETGGGLVQAGGSLRLSCAGSVSIFNRNAMGWYRQAPGKERELVAAISNSGARTYYADSVKGRFTISRDNAKNTVYLQMNSLKPEDTAVYYCTAVRRRSKLYNYWGQGTQVTVSS    high polyreactivity
QVQLVESGGGLVQAGGSLRLSCAASGRTFGAYAMGWYRQAPGKERELVAAIDSGGITYYADSVKGRFTISRDNAKNTVYLQMNSLKPEDTAVYYCAADHRVVTFYEGDYWGQGTQVTVSS    low polyreactivity
QVQLVESGGGLVQAGGSLRLSCAASGRIFGGYAMGWYRQAPGKERELVAAISSSGGRTYYADSVKGRFTISRDNSKKTVYLQMNSLKPEDTAVYYCNAGAGQRVSGHSFEDWGQGTQVTVSS    high polyreactivity

Query (sequence): QVQLVESGGGLVQAGGSLRLSCAASGSNVHYMGGERQAPGKERELVAGISWSGGSTYYADSVMGRFTISRDNAKNTVYLQMNSLKPEDTAVDYCAADYYAHQDYRFDYWGQGTQVTVSS ; field requested: polyreactivity (PSR sort gate)
low polyreactivity

Param item: QVQLVESGGGLVQAGGSLRLSCSASGSIFDRYTIGWYRQAPWKERDLVAAITFGGGSTYYADSVKVRFTISRDNAKNTDYLQRNSLKPADTAVYYCAKQRHGKLGHILGYNYWGQGTQVTVSS
low polyreactivity

Ok, now QVQLVESGGGLVQAGGSLRLSCAASGSIFSGNVIGWYRQAPGKERELVAAISGRGGSTYYADSVKGRFTISRDNAKNTVYLQMNSLKPEDTAVYYCAAVYLKTYYWGQGTQVTVSS
high polyreactivity

Now consider QVQLVESGGGLVKAGGSLRLSCAASGRNFKTYAMGWYRQAPGKERELVAAISRDGRTYYADSVKGRFTISRDNAKNTVYLQMNSLKPEDTAVYFCNKRSYRKGDYWGQGTQVTVSS .
low polyreactivity

Now give it for QVQLVESGGGLVQAGGSLRLSCAASGLTFGTNSMGWYRQAPGKEMELVAAINRGGGSTYYADSVKGRVTISRDNAKNTVYLQMNSLKPEDTAVYYCAKSYSGSRTSDYWGQGTQVTVSS too.
high polyreactivity
